# IC50 listing for each entry below
# target or system: Dihydrofolate reductase (Lactobacillus casei) (UniProt P00381)
# Sequence (P00381 whole entry): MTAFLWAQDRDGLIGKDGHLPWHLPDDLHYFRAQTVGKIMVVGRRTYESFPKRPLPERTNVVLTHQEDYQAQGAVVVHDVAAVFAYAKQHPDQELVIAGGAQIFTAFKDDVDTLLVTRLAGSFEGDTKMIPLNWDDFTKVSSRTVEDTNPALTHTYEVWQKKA
# test method notes: Concentration required for the 50% growth inhibition of Lactobacillus casei dihydrofolate reductase enzyme
# condition description: Lacticaseibacillus casei

compound	IC50, nM
CC(C)(Cc1cnc2nc(N)nc(N)c2n1)c1ccc(C(=O)NC(CCC(=O)O)C(=O)O)cc1 (stereo unspecified)	27
CC(Cc1cnc2nc(N)nc(N)c2n1)c1ccc(C(=O)O)cc1 (stereo unspecified)	420
CCC(Cc1cnc2nc(N)nc(N)c2n1)c1ccc(C(=O)NC(CCC(=O)O)C(=O)O)cc1 (stereo unspecified)	27
CC(Cc1cnc2nc(N)nc(N)c2n1)c1ccc(C(=O)NC(CCC(=O)O)C(=O)O)cc1 (stereo unspecified)	28
CCC(Cc1cnc2nc(N)nc(N)c2n1)c1ccc(C(=O)O)cc1 (stereo unspecified)	380
CC(C)(Cc1cnc2nc(N)nc(N)c2n1)c1ccc(C(=O)O)cc1	440

----------
# target or system: Dihydrofolate reductase (Mus musculus)
# Sequence (P00375 whole entry): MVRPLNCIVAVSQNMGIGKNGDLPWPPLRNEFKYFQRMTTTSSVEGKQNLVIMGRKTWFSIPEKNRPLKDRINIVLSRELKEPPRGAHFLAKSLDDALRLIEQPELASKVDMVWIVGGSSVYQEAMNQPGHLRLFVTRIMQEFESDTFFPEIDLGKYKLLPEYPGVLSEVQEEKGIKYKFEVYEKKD
# test method notes: Tested for inhibition of dihydrofolate reductase enzyme
pKi: −log10 of the molar value.
property measured: pKi

compound	assay value
CC(Cc1cnc2nc(N)nc(N)c2n1)c1ccc(C(=O)NC(CCC(=O)O)C(=O)O)cc1 (stereo not drawn)	11.62
CC(C)(Cc1cnc2nc(N)nc(N)c2n1)c1ccc(C(=O)NC(CCC(=O)O)C(=O)O)cc1 (stereo not drawn)	11.59
Nc1nc(N)c2nc(CCc3ccc(C(=O)N[C@@H](CCC(=O)O)C(=O)O)cc3)cnc2n1	11.68

----------
# test method notes: Michaelis constant of compound was determined from affinity towards carrier component of transport mechanism
Could you please mark true for values of Km below 1 µM and false for values at or above it?

compound	label value
Nc1nc(N)c2nc(CCc3ccc(C(=O)N[C@@H](CCC(=O)O)C(=O)O)cc3)cnc2n1	true
Nc1nc(N)c2nc(CNc3ccc(C(=O)N[C@@H](CCC(=O)O)C(=O)O)cc3)cnc2n1 [AMINOPTERIN]	false
CN(Cc1cnc2nc(N)nc(N)c2n1)c1ccc(C(=O)N[C@@H](CCC(=O)O)C(=O)O)cc1 [METHOTREXATE]	false
CC(C)(Cc1cnc2nc(N)nc(N)c2n1)c1ccc(C(=O)NC(CCC(=O)O)C(=O)O)cc1 (stereo unspecified)	true
CCC(Cc1cnc2nc(N)nc(N)c2n1)c1ccc(C(=O)NC(CCC(=O)O)C(=O)O)cc1 (stereo unspecified)	true
